# Tested on: murine neural precursor cells (neurosphere cultures)
# Assay Notes: HTS of LOPAC library against secondary neurosphere cultures, MTT proliferation assay at 3 μM, day 7 (z score, P value)
# Format: cell-based, mouse
# Run Conditions: LOPAC primary screen, neurosphere MTT proliferation, 3 μM, day 7
Where a name gives a salt, the structure may show the parent alone.
Documented Z score across a set of compounds
# respond with the number and nothing more

// worked examples, Z score included
>>> observed_value("CC(N)Cc1c[nH]c2ccc(O)cc12.O=C(O)/C=C\\C(=O)O (stereo not drawn) [alpha-Methyl-5-hydroxytryptamine maleate]")
"−0.780"
>>> observed_value("c1ccc2c(c1)[I+]c1ccccc1-2 [Diphenyleneiodonium (33), Diphenyleneiodonium, reference compound]")
"−10.068"

Consider the compound shown here: NNCCc1ccccc1 [Phenelzine sulfate] What is its recorded Z score?
−1.536

What does the data say about its Z score? Entry: NS(=O)(=O)c1cc2c(cc1Cl)N=CNS2(=O)=O [Chlorothiazide]
−3.165

Look up Z score: NCCCP(=O)(O)O
−2.331

Look up Z score: C[C@@H]1OC[C@H](C[N+](C)(C)C)O1.[I-] [(+)-cis-Dioxolane iodide]
−3.402

Entry under review: CC(C)[C@@H]1NC(=O)[C@H](CCCCN)NC(=O)[C@@H](Cc2c[nH]c3ccccc23)NC(=O)[C@H](Cc2ccc(O)cc2)NC(=O)[C@H](C)N(C)C(=O)[C@H](Cc2ccccc2)NC1=O [Seglitide] . Reported Z score?
−0.662

Request the reported Z score associated with Oc1ccc2c3c1O[C@H]1c4oc5ccccc5c4C[C@@]4(O)[C@@H](C2)N(CC2CC2)CC[C@]314 [Naltriben methanesulfonate]
−0.361

For CN(CCOc1ccc(C[C@H](Nc2ccccc2C(=O)c2ccccc2)C(=O)O)cc1)c1ccccn1 , what is its reported Z score?
0.015

Param item = CN1Cc2c(N)cccc2C(c2ccccc2)C1 (stereo not shown) [Nomifensine maleate] ; retrieve measured Z score.
0.669

Please give the measured Z score for this compound: N=c1ccn2c(n1)O[C@H]1[C@H](O)[C@@H](CO)O[C@H]12 [Ancitabine hydrochloride]
−9.951

Any idea what its Z score is? The compound is Cc1nc(N=Nc2ccc(C(=O)O)cc2)c(COP(=O)(O)O)c(C=O)c1O
−0.267

So what does the record say about Z score for CC(C)=CCCC(C)=CCCC(C)=CCSc1ccccc1C(=O)O ?
0.906

---

Listed here: items and their measured Z score.
# Tested on: murine neural precursor cells (neurosphere cultures)
# Assay Notes: HTS of LOPAC library against secondary neurosphere cultures, MTT proliferation assay at 3 μM, day 7 (z score, P value)
# Format: cell-based, mouse
# Run Conditions: LOPAC primary screen, neurosphere MTT proliferation, 3 μM, day 7
Where a name gives a salt, the structure may show the parent alone.

Example results:
>>> observed_value("NCC1(CC(=O)O)CCCCC1")
0.884
>>> observed_value("CC(=O)O.NC(=NCCC[C@H](N)C(=O)O)NO [NG-Hydroxy-L-arginine acetate]")
"−10.958"
>>> observed_value("CC(=N)NCCCC[C@H](N)C(=O)O.Cl [L-N6-(1-Iminoethyl)lysine hydrochloride]")
"−0.381"
>>> observed_value("CC(C)(C)NCC(O)c1ccccc1Cl (stereo not shown) [Tulobuterol hydrochloride]")
"−1.767"
>>> observed_value("COc1ccccc1N1CCN(CC(O)COc2cccc3ccccc23)CC1 (stereo not shown) [Naftopidil dihydrochloride]")
"−0.117"

Data request, read-out Z score, for N=C(NCCC[C@H](N)C(=O)O)N[N+](=O)[O-]
0.139

For the compound O.c1cnc2c(c1)ccc1cccnc12 [1,10-Phenanthroline monohydrate] , what Z score is on record?
−0.886

Quick one: Z score of Cc1[nH]c2ccc(O)cc2c1CCN.O=C(O)/C=C\C(=O)O [2-Methyl-5-hydroxytryptamine maleate] ?
0.572

Suppose we examine the compound CC(=O)S[C@@H]1CC2=CC(=O)CC[C@]2(C)[C@H]2CC[C@@]3(C)[C@@H](CC[C@@]34CCC(=O)O4)[C@H]12 ; what Z score value has been reported?
−0.526

I'd like to know its Z score. The compound in question is CCN(CC)CC(=O)Nc1c(C)cccc1C [Lidocaine hydrochloride]
−0.111

Report Z score for Br.Cc1o[nH]c(=O)c1CC(N)C(=O)O (racemic) [(±)-AMPA hydrobromide] please.
−0.427

Would you mind telling me what Z score value was observed for COc1ccc2[nH]cc(CCNC(C)=O)c2c1 ?
−0.241

Value lookup for Z score; key = C[N+]1(C)[C@@H]2CC[C@H]1C[C@@H](OC(=O)C(CO)c1ccccc1)C2 (stereo partly shown) [Atropine methyl bromide]
−0.872
